Target: Cathepsin G (Homo sapiens) (UniProt P08311)
Sequence (whole entry): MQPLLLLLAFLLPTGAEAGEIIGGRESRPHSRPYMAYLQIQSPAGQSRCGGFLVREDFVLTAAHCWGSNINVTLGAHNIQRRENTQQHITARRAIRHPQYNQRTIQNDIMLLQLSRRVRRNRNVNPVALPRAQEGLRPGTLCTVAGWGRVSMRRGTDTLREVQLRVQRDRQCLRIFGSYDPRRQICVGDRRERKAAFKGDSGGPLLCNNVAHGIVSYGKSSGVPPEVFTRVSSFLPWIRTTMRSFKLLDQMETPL
Test: Inhibition of cathepsin G assessed as association equilibrium constant
Bridge positions count the residues as written; N and C are the ends. Square brackets hold non-standard residues; d marks the D form. Peptide text beside a SMILES is read from it. Phe(4-NH2) = Nc1ccc(C[C@H](N)C(=O)O)cc1; Phe(4-Me) = Cc1ccc(C[C@H](N)C(=O)O)cc1
Recorded Ka for the following compounds
Answer with a number only, understood to be in ×10⁶ /M.

## Task Please look at this compound and report its Ka: CC[C@H](C)[C@@H]1NC(=O)[C@@H]2CCCN2C(=O)[C@@H]2CCCN2C(=O)[C@H]([C@@H](C)CC)NC(=O)[C@H](CO)NC(=O)[C@H](Cc2ccc(C)cc2)NC(=O)[C@H]([C@@H](C)O)NC(=O)[C@@H](NC(=O)[C@H](CCCNC(=N)N)NC(=O)CN)CSSC[C@@H](C(=O)N[C@@H](Cc2ccccc2)C(=O)N2CCC[C@H]2C(=O)N[C@@H](CC(=O)O)C(=O)O)NC1=O (H-GRCT[Phe(4-Me)]SIPPICFPD-OH; disulfide 3-11)
## Result 2.8

Consider now this further compound.
## Task Please look at this compound and report its Ka: CC[C@H](C)[C@@H]1NC(=O)[C@@H]2CCCN2C(=O)[C@@H]2CCCN2C(=O)[C@H]([C@@H](C)CC)NC(=O)[C@H](CO)NC(=O)[C@H](Cc2ccc(N)cc2)NC(=O)[C@H]([C@@H](C)O)NC(=O)[C@@H](NC(=O)[C@H](CCCNC(=N)N)NC(=O)CN)CSSC[C@@H](C(=O)N[C@@H](Cc2ccccc2)C(=O)N2CCC[C@H]2C(=O)N[C@@H](CC(=O)O)C(=O)O)NC1=O (H-GRCT[Phe(4-NH2)]SIPPICFPD-OH; disulfide 3-11)
## Result 3.6
